- Protocol details: NCI Yeast Anticancer Drug Screen. Data for the sgs1 mgt1 strain (AID 161);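 further: 0% = growth of cultures given vehicle only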
- Test parameters: S. cerevisiae sgs1 mgt1 strain, at 50.0 µM (retest, dose inferred, filed as 5.0), hits give high values
This is part of a sample that, as a whole, favours compounds with a hit. Of some 79,000 tested, about 15% had one in any assay.
Quick list: growth inhibition per entry.

| Compound | growth inhibition / % |
| --- | --- |
| Oc1c(Cl)cc(Cl)cc1C(c1cc(Cl)cc(Cl)c1O)C(Cl)(Cl)Cl | 99 |
| S=C(S)OCN1CCOCC1 | 28 |
| O=C/C=C/c1ccc([N+](=O)[O-])cc1 | 98 |
| CCOC(=O)NC(/C=C/c1ccccc1)NC(=O)OCC | -29 |
| CCC1CCCCN1C(=S)N/N=C(\C)c1ccccn1 (configuration not stated) | 99 |
| O=C1C=CC(=O)N1c1ccccc1 | 99 |
| OCCNC(c1ccc(Cl)cc1)C(O)c1ccc(Cl)cc1 (configuration not stated) | 77 |

----------
Quick list: growth inhibition per entry.
- Protocol details: NCI Yeast Anticancer Drug Screen. Data for the rad50 strain (AID 155);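 further: 0% = growth of vehicle-only cultures of the same strain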
- Test parameters: S. cerevisiae rad50 strain growth inhibition; at 50.0 µM (retest, dose inferred, filed as 5.0); hits give high values
About 79,000 compounds went through this panel and 15% of them were active in at least one assay; those are over-represented in the sample as a whole.

| Compound | growth inhibition / % |
| --- | --- |
| Cc1ccccc1OCc1cccc(Cl)c1 | 23 |
| COC(=O)Nc1nc2ccc(C3(c4ccc(F)cc4)OCCO3)cc2[nH]1 | 51 |
| O=[N+]([O-])/C=C/c1cccs1 | 98 |
| CCCCN(CCCC)C(=O)C(C)OC(C)=O (centres undefined) | 25 |
| CC1C2c3ccccc3C(c3ccccc32)C1CO (centres undefined) | 88 |
| O=C(O)c1ccc(-c2ccccc2)cc1 | 80 |
| O=C1c2ccccc2-c2ccc(O)cc21 | 95 |
| O=Cc1ccc(O)c(O)c1O | 66 |
| COc1cc(NCc2ccc3nc(N)nc(N)c3c2C)cc(OC)c1OC (tested in a mixture with another compound) | 54 |
| CC(C)c1ccc(C(=O)OC2CCCC2)cc1 | 98 |
| O=[n+]1c2ccccc2n([O-])c2cc(Cl)ccc21 | 99 |
| C=CCO/N=C/c1cc(NC(=S)c2ccoc2C)ccc1Cl | 86 |
| c1csc(-c2[nH]nc3c2CCc2ccccc2-3)c1 | 97 |
| CN(C)c1ccc(/C=C/c2nccc3ccccc23)cc1 | 96 |
| O=C(/C=C/C(Cl)(Cl)Cl)Nc1ccc(Cl)cc1 | 16 |
| CC1(C)N=c2cc3c(cc2N1c1ccc(Cl)cc1)=Nc1ccccc1N3c1ccc(Cl)cc1 | -4 |
| CCCCC(CCc1ccc([N+](=O)[O-])cc1)(C(C)=O)C(=O)OCC (centres undefined) | -41 |
| COc1ccc(C(N)=O)cc1 | 2 |
| CCCCCCCCCCCCNCCCc1ccccc1 | 98 |
| O=C(c1ccccc1)N(CCCl)C(=O)N(CCCl)C(=O)c1ccccc1 | 56 |
| Cc1cccc(N=NC(C#N)C#N)c1 | 95 |
| CC1C(c2ccccc2)OCCN1C(=S)Nc1ccc(S(=O)(=O)N2CCCCC2)cc1 (centres undefined) | 86 |
| COc1cc(N(CCC#N)CCC#N)ccc1/C(N=Nc1ccc([N+](=O)[O-])cc1)=N/NC(=O)c1cc(Br)ccc1O | 27 |
| CCCCN(CCCC)CCCCCCCCCCO | -2 |
| CCN(CC)CC(O)CNc1ccc(NCC2CO2)c2c1C(=O)c1ccccc1C2=O (centres undefined) | 76 |
| C=C1C(=O)C2=CC1CCC(=O)C1(C)CCC(OC(C)=O)C(C)(C)C1CC2O (centres undefined) | 52 |
| COc1cccc(NC(=O)c2c(SC)c(C#N)c(=O)n(N)c2N)c1 | 99 |
| O=C(O)c1cc2c(s1)C(=O)c1sccc1C2=O | 75 |
| Cc1cc2nc(CC(=O)c3ccncc3)c(=O)[nH]c2cc1C | 9 |
| Cc1oc2c(C)c3oc(=O)cc(C)c3cc2c1CCl | 94 |
| O=C1Nc2ccc(Br)cc2C1=O | 95 |
| COc1cccc(NC(=O)c2c(SC)n[nH]c2N)c1 | 99 |
| C=COC(=O)c1ccccc1C(=O)OCCCC | 22 |
| CC(C)=CCCC(C)C1=C(O)C(=O)C(C)=CC1=O (centres undefined) | 97 |
| Cc1cc(C)c(C#N)c(Sc2nc(C)c([N+](=O)[O-])c(C)c2C#N)n1 | 54 |
| COc1ccc2c(c1OC)OCC(CN(C)C)C2=O (centres undefined) | 98 |
| Cc1ccc(N2C(=O)C=CC2=O)cc1 | 99 |
| C=CC(=O)OCCOCc1ccccc1 | 29 |
| CC(=O)Oc1c(Br)cc(Br)cc1C(OC(C)=O)OC(C)=O | 96 |
| CCOc1ccc(Nc2nc3c(s2)C(=O)c2ccccc2C3=O)cc1 | 99 |
| Oc1ccc2ccccc2c1N=Nc1ccccn1 | 91 |
| CCOC(=O)/C(=C\c1ccc2ccccc2c1)P(=O)(OCC)OCC | 59 |
| C/C(=N\NC(=S)N(C)C)c1ccccn1 | 98 |
| Oc1c(Cl)cc(Cl)cc1C(c1cc(Cl)cc(Cl)c1O)C(Cl)(Cl)Cl | 99 |
| O=C(c1ccc(O)c(Br)c1)c1ccc(O)c(Br)c1 | 99 |
| C[C@@]1(CO)[C@H](O)CC[C@@]2(C)[C@H]1CC[C@H]1C[C@@H]3C[C@@]12CC[C@@]3(O)COC(=O)CN | 65 |
| COc1ccc(N=CC2CCCCC2=O)c([N+](=O)[O-])c1 (centres undefined) | 69 |
| Oc1ccc(Cl)cc1Cc1cc(Cl)ccc1O | 99 |
| C(CCc1nn[nH]n1)CCC1CCCCC1 | 98 |
